Listed here: items and their measured relative viability.
- System: LU99A
- Test method notes: relative viability (nuclei count vs DMSO), 5 days (fraction); higher = more cells survive
- Run parameters: first compound 0.8 µM
The response must contain the number and no unit.

Quick one: give measured relative viability for C=C1C(=O)O[C@@H](CCCCCCCC)[C@@H]1C(=O)O [C-75] + O=C(c1cc(Cc2n[nH]c(=O)c3ccccc23)ccc1F)N1CCN(C(=O)C2CC2)CC1 [Olaparib] (partner 8 µM) 0.25

Quick one: give measured relative viability for C=C1C(=O)O[C@@H](CCCCCCCC)[C@@H]1C(=O)O [C-75] + Cc1cc(Nc2cc(N3CCN(C)CC3)nc(Sc3ccc(NC(=O)C4CC4)cc3)n2)n[nH]1 [Tozasertib] (partner 0.1 µM) 0.253

Quick one: give measured relative viability for C=C1C(=O)O[C@@H](CCCCCCCC)[C@@H]1C(=O)O [C-75] + CC(C)C[C@H](NC(=O)[C@H](Cc1ccccc1)NC(=O)c1cnccn1)B(O)O [Bortezomib] (partner 0.002 µM) 1.08

Reference source for all entries: the supplement of paper PMC10307832
